The reported numbers originate from ChEMBL document CHEMBL1123552.

- System: Plasmodium falciparum
- assayOverview: In vitro antimalarial activity against Plasmodium falciparum D6 Sierra Leone
- Format: functional, organism-based
Label t when IC50 is strictly below 0.003 mg/L; otherwise label f.

Find out if reported IC50 for COC(=O)CCO[C@H]1O[C@@H]2OC3(C)CC[C@H]4[C@H](C)CC[C@@H]([C@H]1C)[C@@]24OO3 (single isomer, unassigned) is less than 0.003 mg/L
t

Find out if reported IC50 for C[C@H]1[C@@H](OCCC(=O)O)O[C@@H]2OC3(C)CC[C@H]4[C@H](C)CC[C@@H]1[C@@]24OO3 (single isomer, unassigned; 7b) is less than 0.003 mg/L
f

Find out if reported IC50 for C[C@H]1[C@@H](OCCCC(=O)O)O[C@@H]2OC3(C)CC[C@H]4[C@H](C)CC[C@@H]1[C@@]24OO3 (single isomer, unassigned) is less than 0.003 mg/L
f

Find out if reported IC50 for C[C@H]1[C@@H](OCCCC(=O)O)O[C@@H]2O[C@]3(C)CC[C@H]4[C@H](C)CC[C@@H]1[C@@]24OO3 is less than 0.003 mg/L
f

Find out if reported IC50 for COC(=O)c1ccc(CO[C@H]2O[C@@H]3OC4(C)CC[C@H]5[C@H](C)CC[C@@H]([C@H]2C)[C@@]35OO4)cc1 (single isomer, unassigned) is less than 0.003 mg/L
t
